# assayed.system: MAGI2_5, Q86UL8
# Sequence (Q86UL8 915-1017): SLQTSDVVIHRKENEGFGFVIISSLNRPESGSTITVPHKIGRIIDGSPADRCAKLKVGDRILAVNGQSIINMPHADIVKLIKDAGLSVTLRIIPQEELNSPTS
# experiment.summary: holdup assay
# Set-up: key: below the threshold = too weak to quantify, mostly under pKd 3.1 to 4
# protocol.conditions: plain residues with an end cap or a label only (N-terminal biotin on a linker: ado-ado)

binder | pKd
TRKRSGEAAV [PFKM, P08237] | below the threshold
PSVGSKKTVL [REELD1, A0A1B0GV85] | below the threshold
MHIQEKGFHV [EPHA6, Q9UF33] | below the threshold
